The measured values listed here are drawn from ChEMBL document CHEMBL1137139.

tested on: MCF7; test: Compound was tested for its cytotoxicity by inhibiting the growth of MCF-7 cell line after 72 h; format: functional, cell-based; conditions: Homo sapiens, MCF7, 72 h
The compounds listed here are annotated with their log10(IC50).
MEASURE: log10(IC50) (log10 of the value in nM)

CPD_SMILES	log10(IC50)
CC(=O)O[C@H]1C(=O)[C@@]2(C)[C@H]([C@H](OC(=O)c3cccc(N(C)C)c3)[C@]3(O)C[C@H](OC(=O)[C@H](O)[C@H](C=C(C)C)NC(=O)OC(C)(C)C)C(C)=C1C3(C)C)[C@]1(OC(C)=O)CO[C@@H]1C[C@@H]2O	0.00
CSSCCC(=O)O[C@H]1C(=O)[C@@]2(C)[C@H]([C@H](OC(=O)c3cccc(Cl)c3)[C@]3(O)C[C@H](OC(=O)[C@H](O)[C@H](C=C(C)C)NC(=O)OC(C)(C)C)C(C)=C1C3(C)C)[C@]1(OC(C)=O)CO[C@@H]1C[C@@H]2O	-1.10
COc1ccc(OC)c(C(=O)O[C@H]2[C@@H]3[C@]4(OC(C)=O)CO[C@@H]4C[C@H](O)[C@@]3(C)C(=O)[C@H](OC(=O)CCSSC)C3=C(C)[C@@H](OC(=O)[C@H](O)[C@H](C=C(C)C)NC(=O)OC(C)(C)C)C[C@]2(O)C3(C)C)c1	-1.40
COc1ccc(OC)c(C(=O)O[C@H]2[C@@H]3[C@]4(OC(C)=O)CO[C@@H]4C[C@H](O)[C@@]3(C)C(=O)[C@H](OC(C)=O)C3=C(C)[C@@H](OC(=O)[C@H](O)[C@H](C=C(C)C)NC(=O)OC(C)(C)C)C[C@]2(O)C3(C)C)c1	-1.52
CSSCCC(=O)O[C@H]1C(=O)[C@@]2(C)[C@H]([C@H](OC(=O)c3cccc(N(C)C)c3)[C@]3(O)C[C@H](OC(=O)[C@H](O)[C@H](C=C(C)C)NC(=O)OC(C)(C)C)C(C)=C1C3(C)C)[C@]1(OC(C)=O)CO[C@@H]1C[C@@H]2O	0.48
CSSCCC(=O)O[C@H]1C(=O)[C@@]2(C)[C@H]([C@H](OC(=O)c3cc(F)cc(F)c3)[C@]3(O)C[C@H](OC(=O)[C@H](O)[C@H](C=C(C)C)NC(=O)OC(C)(C)C)C(C)=C1C3(C)C)[C@]1(OC(C)=O)CO[C@@H]1C[C@@H]2O	-0.82
COc1cccc(C(=O)O[C@H]2[C@@H]3[C@]4(OC(C)=O)CO[C@@H]4C[C@H](O)[C@@]3(C)C(=O)[C@H](OC(=O)CCSSC)C3=C(C)[C@@H](OC(=O)[C@H](O)[C@H](C=C(C)C)NC(=O)OC(C)(C)C)C[C@]2(O)C3(C)C)c1	-1.42
COc1cccc(C(=O)O[C@H]2[C@@H]3[C@]4(OC(C)=O)CO[C@@H]4C[C@H](O)[C@@]3(C)C(=O)[C@H](OC(C)=O)C3=C(C)[C@@H](OC(=O)[C@H](O)[C@H](C=C(C)C)NC(=O)OC(C)(C)C)C[C@]2(O)C3(C)C)c1	-1.70
CC(=O)O[C@H]1C(=O)[C@@]2(C)[C@H]([C@H](OC(=O)c3cc(F)cc(F)c3)[C@]3(O)C[C@H](OC(=O)[C@H](O)[C@H](C=C(C)C)NC(=O)OC(C)(C)C)C(C)=C1C3(C)C)[C@]1(OC(C)=O)CO[C@@H]1C[C@@H]2O	-1.40
CC(=O)O[C@H]1C(=O)[C@@]2(C)[C@H]([C@H](OC(=O)c3cccc(Cl)c3)[C@]3(O)C[C@H](OC(=O)[C@H](O)[C@H](C=C(C)C)NC(=O)OC(C)(C)C)C(C)=C1C3(C)C)[C@]1(OC(C)=O)CO[C@@H]1C[C@@H]2O	-1.70
